Quantity kind: IC50 (µM)
Record the value in µM, omitting the unit from your answer.

Provide IC50, system Vascular endothelial growth factor receptor 2 (Homo sapiens, UniProt P35968), entry CCOC(=O)Nc1ccc(Nc2ncnc3cc(OCCN4CCCCC4)c(OC)cc23)cc1C
0.9

Provide IC50, system Vascular endothelial growth factor receptor 2 (Homo sapiens, UniProt P35968), entry COC(=O)Nc1ccc(Nc2ncnc3cc(OC)c(OC)cc23)cc1Cl
5.05

Provide IC50, system Vascular endothelial growth factor receptor 2 (Homo sapiens, UniProt P35968), entry CCOC(=O)Nc1ccc(Nc2ncnc3cc(OCCN4CCCCC4)c(OC)cc23)cc1Cl
0.8

Provide IC50, system Vascular endothelial growth factor receptor 2 (Homo sapiens, UniProt P35968), entry CCCC(=O)Nc1ccc(Nc2ncnc3cc(OC)c(OC)cc23)cc1C
4.3

Provide IC50, system Vascular endothelial growth factor receptor 2 (Homo sapiens, UniProt P35968), entry CCCCOc1cc2c(Nc3ccc(NC(=O)OCC)c(C)c3)ncnc2cc1OCCN(CC)CC
5.7

Provide IC50, system Vascular endothelial growth factor receptor 2 (Homo sapiens, UniProt P35968), entry CCOC(=O)Nc1ccc(Nc2ncnc3cc(OCCN(CC)CC)c(OC)cc23)cc1C
3.7

Provide IC50, system Vascular endothelial growth factor receptor 2 (Homo sapiens, UniProt P35968), entry CCOC(=O)Nc1ccc(Nc2ncnc3cc(OCCN4CCOCC4)c(OC)cc23)cc1Cl
0.3

The values you see were collected from ChEMBL document CHEMBL3217416.
